Experiment Description: Tissue distribution of SHR9146 in mice after oral gavage of 40 mg/kg
Assay type: in vivo, ICR mice
Conditions Used: female, ICR, mouse, ovary, po, 40 mg/kg, female, 1 h, 40 mg/kg oral gavage, individual mice; read-out: SHR9146 concentration in Ovary
Assay Endpoint: concentration at 1 h

Data request, read-out concentration at 1 h, for `OCCn1cc(-c2ccc(N3CCC([C@H]4c5c(F)cccc5-c5cncn54)CC3)cc2)cn1`
17000 ng/g

---

Experiment Description: Plasma pharmacokinetics of SHR9146 in mice (LC-MS/MS, non-compartmental analysis)
Type: in vivo, ICR mice
Conditions Used: female, ICR, mouse, plasma, po, 20 mg/kg, 20 mg/kg i.g. bid, 7 days (7th-day steady state); female mice; plasma; read-out: AUC0-t
Assay Endpoint: AUC(0-t) (ng·h/mL)
Record the value in ng·h/mL, omitting the unit from your answer.

Data request, read-out AUC(0-t), for OCCn1cc(-c2ccc(N3CCC([C@H]4c5c(F)cccc5-c5cncn54)CC3)cc2)cn1 [SHR9146]
24200
